Target: plasma purified human complement protein C3 (human) (UniProt P01024)
Sequence (P01024 23-667, chain 1 of 2): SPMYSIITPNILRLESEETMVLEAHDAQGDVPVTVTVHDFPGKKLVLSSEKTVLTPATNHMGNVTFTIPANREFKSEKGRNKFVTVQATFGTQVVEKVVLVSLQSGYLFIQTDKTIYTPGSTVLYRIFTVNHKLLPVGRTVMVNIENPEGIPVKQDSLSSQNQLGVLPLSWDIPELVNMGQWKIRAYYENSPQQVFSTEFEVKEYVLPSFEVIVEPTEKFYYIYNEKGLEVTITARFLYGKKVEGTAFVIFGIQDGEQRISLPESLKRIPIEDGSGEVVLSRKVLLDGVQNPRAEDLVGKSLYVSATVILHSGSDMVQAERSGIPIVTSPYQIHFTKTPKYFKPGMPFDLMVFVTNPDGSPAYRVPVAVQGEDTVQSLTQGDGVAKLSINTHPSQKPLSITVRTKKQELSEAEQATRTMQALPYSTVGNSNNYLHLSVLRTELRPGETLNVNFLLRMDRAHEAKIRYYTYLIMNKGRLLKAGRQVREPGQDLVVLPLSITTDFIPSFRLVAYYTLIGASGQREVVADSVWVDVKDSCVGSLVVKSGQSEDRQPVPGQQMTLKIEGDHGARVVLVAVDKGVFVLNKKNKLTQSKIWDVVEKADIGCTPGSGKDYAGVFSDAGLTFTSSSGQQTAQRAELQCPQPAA
Sequence (P01024 672-1663, chain 2 of 2): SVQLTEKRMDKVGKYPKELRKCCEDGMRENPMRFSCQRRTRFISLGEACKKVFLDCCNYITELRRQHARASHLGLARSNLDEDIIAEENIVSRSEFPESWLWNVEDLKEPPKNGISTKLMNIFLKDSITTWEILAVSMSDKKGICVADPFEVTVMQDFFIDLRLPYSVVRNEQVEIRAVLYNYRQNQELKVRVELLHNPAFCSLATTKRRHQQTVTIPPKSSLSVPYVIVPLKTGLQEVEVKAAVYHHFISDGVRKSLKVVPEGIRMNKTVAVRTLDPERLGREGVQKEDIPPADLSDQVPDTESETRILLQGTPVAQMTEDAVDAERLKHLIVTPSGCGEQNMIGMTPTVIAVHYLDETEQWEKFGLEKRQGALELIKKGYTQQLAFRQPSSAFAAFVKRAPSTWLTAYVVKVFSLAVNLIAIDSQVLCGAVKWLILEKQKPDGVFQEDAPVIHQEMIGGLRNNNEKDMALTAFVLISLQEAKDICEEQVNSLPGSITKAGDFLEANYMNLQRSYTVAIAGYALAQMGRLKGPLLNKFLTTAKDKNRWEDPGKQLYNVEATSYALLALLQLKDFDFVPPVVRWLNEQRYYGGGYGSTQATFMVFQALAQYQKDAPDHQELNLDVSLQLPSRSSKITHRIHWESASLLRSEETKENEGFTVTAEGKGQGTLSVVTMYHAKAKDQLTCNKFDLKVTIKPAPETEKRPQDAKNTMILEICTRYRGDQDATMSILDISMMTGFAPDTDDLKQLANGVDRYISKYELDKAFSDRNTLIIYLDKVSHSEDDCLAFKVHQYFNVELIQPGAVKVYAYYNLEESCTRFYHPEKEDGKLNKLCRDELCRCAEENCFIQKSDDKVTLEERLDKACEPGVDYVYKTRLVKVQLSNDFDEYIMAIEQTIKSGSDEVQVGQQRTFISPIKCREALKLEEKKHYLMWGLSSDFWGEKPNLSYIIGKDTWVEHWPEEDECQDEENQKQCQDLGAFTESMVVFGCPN
Assay: cell-based or functional assay
// returns No unless EC50 hC3 cleavage is strictly below 8 nM, in which case Yes

MTSP-1 protease domain Q38H/I41S/D60bT/F60eS/Y60gW/ins97aV/F97D/T98P/F99L/C122S/G151H/Q175L (enzyme) VVGGTDADEGEWPWQVSLHALGHGHSCGASLISPNWLVSAAHCYIDTRGSRWSDPTQWTAFLGLHDQSQRSAPGVQERRLKRIISHPFFNDDVPLDYDIALLELEKPAEYSSMVRPISLPDASHVFPAGKAIWVTGWGHTQYGGTHALILQKGEIRVINQTTCENLLPQLITPRMMCVGFLSGGVDSCQGDSGGPLSSVEADGRIFQAGVVSWGDGCAQRNKPGVYTRLPLFRDWIKENTGV : Yes
MTSP-1 protease domain Q38Y/I41S/D60bT/F60eR/Y60gW/D96M/F97N/T98G/F99L/C122S/G151N/Q175L/Q192D (enzyme) VVGGTDADEGEWPWQVSLHALGYGHSCGASLISPNWLVSAAHCYIDTRGRRWSDPTQWTAFLGLHDQSQRSAPGVQERRLKRIISHPFFNMNGLDYDIALLELEKPAEYSSMVRPISLPDASHVFPAGKAIWVTGWGHTQYGGTNALILQKGEIRVINQTTCENLLPQLITPRMMCVGFLSGGVDSCDGDSGGPLSSVEADGRIFQAGVVSWGDGCAQRNKPGVYTRLPLFRDWIKENTGV : Yes

Decide: EC50 hC3 cleavage of MTSP-1 protease domain I41S/Y59F/ins97aV/C122S/Q192A (enzyme) VVGGTDADEGEWPWQVSLHALGQGHSCGASLISPNWLVSAAHCFIDDRGFRYSDPTQWTAFLGLHDQSQRSAPGVQERRLKRIISHPFFNDFVTFDYDIALLELEKPAEYSSMVRPISLPDASHVFPAGKAIWVTGWGHTQYGGTGALILQKGEIRVINQTTCENLLPQQITPRMMCVGFLSGGVDSCAGDSGGPLSSVEADGRIFQAGVVSWGDGCAQRNKPGVYTRLPLFRDWIKENTGV strictly below 8 nM? No

Please determine if MTSP-1 protease domain I41G/F97S/F99L/C122S/G151T/Q175R/Q192A/D217Y (enzyme) VVGGTDADEGEWPWQVSLHALGQGHGCGASLISPNWLVSAAHCYIDDRGFRYSDPTQWTAFLGLHDQSQRSAPGVQERRLKRIISHPFFNDSTLDYDIALLELEKPAEYSSMVRPISLPDASHVFPAGKAIWVTGWGHTQYGGTTALILQKGEIRVINQTTCENLLPQRITPRMMCVGFLSGGVDSCAGDSGGPLSSVEADGRIFQAGVVSWGYGCAQRNKPGVYTRLPLFRDWIKENTGV is below 8 nM in terms of EC50 hC3 cleavage. No
